- ASSAY NOTES: Tmax in mouse plasma at 30 mg/kg, po QD
- Type: ADME, organism-based
- Parameters: dose 30 mg/kg, route oral
MEASURED ENDPOINT: Tmax
Write the numeric value and follow it with the unit.

Task: # query: Tmax of entry "CCCCCCCCCCCCC[C@H](O)C[C@H](O)[C@H](C)N"
Output: 2 h

====

- ASSAY NOTES: Apparent volume of distribution during terminal phase in mouse RBC at 30 mg/kg, po QD
- Type: ADME, organism-based, Erythrocyte
- Set-up: dose 30 mg/kg, route oral
- MEASUREMENT SETUP: red blood cells (RBC), read-out: Vz/F
MEASURED ENDPOINT: Vd/F (L/kg)
The answer is to be given in L/kg; state only the numeric part.

Task: # query: Vd/F of entry CCCCCCCCCCCCC[C@H](O)C[C@H](O)[C@H](C)N [ENIGMOL]
Output: 25

====

- ASSAY NOTES: Cmax in mouse RBC at 30 mg/kg, po QD
- Assay type: ADME, organism-based, Erythrocyte
- Parameters: dose 30 mg/kg, route oral
- MEASUREMENT SETUP: red blood cells (RBC)
MEASURED ENDPOINT: Cmax (µM)
The answer is to be given in µM; state only the numeric part.

Task: # query: Cmax of entry CCCCCCCCCCCCC[C@H](O)C[C@H](O)[C@H](C)N [ENIGMOL]
Output: 3.3

====

- ASSAY NOTES: Half life in mouse RBC at 30 mg/kg, po QD
- Assay type: ADME, organism-based, Erythrocyte
- Set-up: dose 30 mg/kg, route oral
- MEASUREMENT SETUP: red blood cells (RBC)
MEASURED ENDPOINT: half-life (h)
The answer is to be given in h; state only the numeric part.

Task: # query: half-life of entry "CCCCCCCCCCCCC[C@H](O)C[C@H](O)[C@H](C)N"
Output: 8.9
